Molecular target: Alpha-2A adrenergic receptor (Homo sapiens)
pKi: −log10 of the molar value.
ASSAY_METRIC: pKi

- SAMPLE_SMILES: "CN[C@@H](C)Cc1ccc2c(c1)OCO2"
  ASSAY_METRIC: "pKi"
  TEST_RESULT: 5.60

====

Target: UniProt:P20272
pKi: −log10 of the molar value.

- SAMPLE_SMILES: "CN[C@@H](C)Cc1ccc2c(c1)OCO2"
  pKi: "< 5.00"

====

Target: 5-hydroxytryptamine receptor 5A (Homo sapiens, UniProt P47898)
ASSAY_METRIC: Ki

- SAMPLE_SMILES: "CN[C@@H](C)Cc1ccc2c(c1)OCO2"
  TGT: "5-hydroxytryptamine receptor 5A (Homo sapiens, UniProt P47898)"
  ASSAY_METRIC: "Ki"
  TEST_RESULT: "> 10 µM"

====

Molecular target: Gamma-aminobutyric acid (GABA) B receptor 1 (Rattus norvegicus)
Sequence (Q6MFX8 whole entry): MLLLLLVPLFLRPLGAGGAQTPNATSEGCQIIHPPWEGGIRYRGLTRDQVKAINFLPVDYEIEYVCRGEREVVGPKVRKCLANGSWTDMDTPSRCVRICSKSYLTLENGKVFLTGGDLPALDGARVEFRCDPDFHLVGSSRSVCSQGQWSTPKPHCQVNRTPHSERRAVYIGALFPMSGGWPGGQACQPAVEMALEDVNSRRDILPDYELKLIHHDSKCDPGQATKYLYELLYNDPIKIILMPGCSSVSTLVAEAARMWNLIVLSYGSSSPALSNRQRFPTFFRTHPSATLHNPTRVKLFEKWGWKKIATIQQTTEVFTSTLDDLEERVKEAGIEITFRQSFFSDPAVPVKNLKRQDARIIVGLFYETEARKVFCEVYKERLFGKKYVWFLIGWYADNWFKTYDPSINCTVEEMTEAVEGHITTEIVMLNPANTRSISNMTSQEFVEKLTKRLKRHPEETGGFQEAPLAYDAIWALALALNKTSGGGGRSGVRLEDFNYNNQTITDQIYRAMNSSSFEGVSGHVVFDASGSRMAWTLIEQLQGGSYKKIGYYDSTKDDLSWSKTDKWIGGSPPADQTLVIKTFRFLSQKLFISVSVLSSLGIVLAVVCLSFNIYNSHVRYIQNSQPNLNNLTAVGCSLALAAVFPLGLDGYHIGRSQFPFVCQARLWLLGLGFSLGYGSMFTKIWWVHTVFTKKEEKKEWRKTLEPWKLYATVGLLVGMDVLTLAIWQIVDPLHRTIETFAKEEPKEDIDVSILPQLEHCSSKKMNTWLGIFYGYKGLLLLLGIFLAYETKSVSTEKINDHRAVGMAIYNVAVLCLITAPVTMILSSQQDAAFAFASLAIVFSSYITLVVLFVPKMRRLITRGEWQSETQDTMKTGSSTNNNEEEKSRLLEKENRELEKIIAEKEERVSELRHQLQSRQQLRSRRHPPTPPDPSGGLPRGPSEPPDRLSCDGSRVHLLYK
pKi: −log10 of the molar value.

- SAMPLE_SMILES: "CN[C@@H](C)Cc1ccc2c(c1)OCO2"
  pKi: "< 5.00"

====

Molecular target: UniProtKB P35367
Sequence (P35367 whole entry): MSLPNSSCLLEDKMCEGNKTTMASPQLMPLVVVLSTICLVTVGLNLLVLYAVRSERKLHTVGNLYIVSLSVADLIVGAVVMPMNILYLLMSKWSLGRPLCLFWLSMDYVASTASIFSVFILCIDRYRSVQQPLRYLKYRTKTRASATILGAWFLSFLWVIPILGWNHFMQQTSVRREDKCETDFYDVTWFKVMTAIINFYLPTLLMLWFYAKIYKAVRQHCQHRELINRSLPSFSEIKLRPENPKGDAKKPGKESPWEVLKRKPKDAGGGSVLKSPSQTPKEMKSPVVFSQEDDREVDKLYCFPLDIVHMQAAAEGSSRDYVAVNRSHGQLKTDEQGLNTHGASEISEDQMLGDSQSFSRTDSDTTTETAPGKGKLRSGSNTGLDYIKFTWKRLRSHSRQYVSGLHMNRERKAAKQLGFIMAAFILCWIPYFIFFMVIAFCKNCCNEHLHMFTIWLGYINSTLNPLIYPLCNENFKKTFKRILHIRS

- MOLECULE: "CN[C@@H](C)Cc1ccc2c(c1)OCO2 [DL-(3,4-Methylenedioxy)methamphetamine]"
  Ki [µM]: 2.14

====

Molecular target: Metabotropic glutamate receptor 1 (Rattus norvegicus)
Sequence (P23385 whole entry): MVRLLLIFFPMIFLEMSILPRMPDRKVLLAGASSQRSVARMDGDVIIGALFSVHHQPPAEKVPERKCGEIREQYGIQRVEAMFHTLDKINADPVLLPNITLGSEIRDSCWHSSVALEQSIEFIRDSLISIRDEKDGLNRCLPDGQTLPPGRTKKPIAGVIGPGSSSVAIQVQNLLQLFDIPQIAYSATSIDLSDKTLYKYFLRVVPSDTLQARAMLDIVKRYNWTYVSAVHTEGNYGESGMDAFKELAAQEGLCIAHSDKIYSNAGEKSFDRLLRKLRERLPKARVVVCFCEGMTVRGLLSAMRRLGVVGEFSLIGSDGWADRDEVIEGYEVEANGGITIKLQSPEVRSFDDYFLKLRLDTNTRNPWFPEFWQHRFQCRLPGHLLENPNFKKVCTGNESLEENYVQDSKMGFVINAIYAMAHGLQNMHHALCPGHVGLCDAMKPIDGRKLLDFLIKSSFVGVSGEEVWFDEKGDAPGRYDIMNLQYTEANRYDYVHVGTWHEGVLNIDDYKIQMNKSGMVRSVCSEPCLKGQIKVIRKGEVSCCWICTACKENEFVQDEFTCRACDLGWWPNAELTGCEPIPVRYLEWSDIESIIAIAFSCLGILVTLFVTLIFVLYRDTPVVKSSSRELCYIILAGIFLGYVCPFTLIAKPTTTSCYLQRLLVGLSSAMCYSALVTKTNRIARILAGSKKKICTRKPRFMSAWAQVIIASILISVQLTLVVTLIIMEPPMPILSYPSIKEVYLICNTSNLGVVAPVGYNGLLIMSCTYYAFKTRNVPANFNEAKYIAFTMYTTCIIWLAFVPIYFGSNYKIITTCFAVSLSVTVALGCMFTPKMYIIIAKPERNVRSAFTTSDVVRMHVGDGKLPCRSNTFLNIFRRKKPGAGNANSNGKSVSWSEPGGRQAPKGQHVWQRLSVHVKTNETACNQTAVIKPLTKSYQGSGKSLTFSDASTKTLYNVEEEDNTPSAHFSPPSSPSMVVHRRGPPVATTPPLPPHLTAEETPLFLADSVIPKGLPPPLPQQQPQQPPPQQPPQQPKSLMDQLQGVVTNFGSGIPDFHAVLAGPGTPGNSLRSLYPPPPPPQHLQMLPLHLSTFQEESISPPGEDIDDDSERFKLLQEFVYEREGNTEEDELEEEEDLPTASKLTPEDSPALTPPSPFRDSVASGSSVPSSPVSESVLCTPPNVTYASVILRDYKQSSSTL
pKi: −log10 of the molar value.

- MOLECULE: "CN[C@@H](C)Cc1ccc2c(c1)OCO2 [DL-(3,4-Methylenedioxy)methamphetamine]"
  TGT: "Metabotropic glutamate receptor 1 (Rattus norvegicus)"
  pKi: "< 5.00"

====

Biological target: UniProt P35439
pKi: −log10 of the molar value.
ASSAY_METRIC: pKi

- SAMPLE_SMILES: "CN[C@@H](C)Cc1ccc2c(c1)OCO2"
  TGT: "UniProt P35439"
  ASSAY_METRIC: "pKi"
  TEST_RESULT: "< 5.00"

====

Molecular target: Metabotropic glutamate receptor 4 (Rattus norvegicus)
pKi: −log10 of the molar value.

- COMPOUND: "CN[C@@H](C)Cc1ccc2c(c1)OCO2 [DL-(3,4-Methylenedioxy)methamphetamine]"
  pKi: "< 5.00"

====

Target: Sodium-dependent noradrenaline transporter (Homo sapiens, UniProt P23975)
Sequence (P23975 whole entry): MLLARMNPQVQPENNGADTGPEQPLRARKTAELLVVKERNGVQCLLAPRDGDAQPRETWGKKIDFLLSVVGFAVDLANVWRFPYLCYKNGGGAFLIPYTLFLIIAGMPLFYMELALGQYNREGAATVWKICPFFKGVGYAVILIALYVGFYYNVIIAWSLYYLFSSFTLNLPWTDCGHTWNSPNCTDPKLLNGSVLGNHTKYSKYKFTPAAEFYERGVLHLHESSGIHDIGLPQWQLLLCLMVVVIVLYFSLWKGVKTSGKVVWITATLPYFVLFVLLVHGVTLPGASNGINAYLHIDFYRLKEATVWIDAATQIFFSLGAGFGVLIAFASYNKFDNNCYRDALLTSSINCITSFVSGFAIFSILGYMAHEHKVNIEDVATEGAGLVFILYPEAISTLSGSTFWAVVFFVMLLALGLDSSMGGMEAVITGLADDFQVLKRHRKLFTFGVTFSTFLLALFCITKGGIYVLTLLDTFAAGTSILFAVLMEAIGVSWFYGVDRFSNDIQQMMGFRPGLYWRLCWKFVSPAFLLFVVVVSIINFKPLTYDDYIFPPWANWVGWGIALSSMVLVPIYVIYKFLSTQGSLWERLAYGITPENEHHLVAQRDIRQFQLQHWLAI
pKi: −log10 of the molar value.

- SAMPLE_SMILES: "CN[C@@H](C)Cc1ccc2c(c1)OCO2"
  pKi: "< 5.00"

====

Molecular target: 5-hydroxytryptamine receptor 1B (Homo sapiens, UniProt P28222)
Sequence (P28222 whole entry): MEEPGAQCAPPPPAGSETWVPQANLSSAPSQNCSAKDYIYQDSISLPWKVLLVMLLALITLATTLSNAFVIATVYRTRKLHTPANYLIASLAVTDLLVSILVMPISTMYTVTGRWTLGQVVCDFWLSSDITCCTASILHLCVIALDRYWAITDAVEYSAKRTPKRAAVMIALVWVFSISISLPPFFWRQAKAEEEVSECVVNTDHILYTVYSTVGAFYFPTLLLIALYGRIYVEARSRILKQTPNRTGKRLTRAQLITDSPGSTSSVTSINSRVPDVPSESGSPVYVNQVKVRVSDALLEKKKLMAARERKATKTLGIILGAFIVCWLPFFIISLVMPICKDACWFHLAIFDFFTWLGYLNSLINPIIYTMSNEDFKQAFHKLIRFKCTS
ASSAY_METRIC: Ki

- COMPOUND: "CN[C@@H](C)Cc1ccc2c(c1)OCO2 [DL-(3,4-Methylenedioxy)methamphetamine]"
  TEST_RESULT: "> 10 µM"

====

As shown below, each of these molecules has a reported Ki value.
Target: Sodium-dependent serotonin transporter (Rattus norvegicus, UniProt P31652)
Sequence (P31652 whole entry): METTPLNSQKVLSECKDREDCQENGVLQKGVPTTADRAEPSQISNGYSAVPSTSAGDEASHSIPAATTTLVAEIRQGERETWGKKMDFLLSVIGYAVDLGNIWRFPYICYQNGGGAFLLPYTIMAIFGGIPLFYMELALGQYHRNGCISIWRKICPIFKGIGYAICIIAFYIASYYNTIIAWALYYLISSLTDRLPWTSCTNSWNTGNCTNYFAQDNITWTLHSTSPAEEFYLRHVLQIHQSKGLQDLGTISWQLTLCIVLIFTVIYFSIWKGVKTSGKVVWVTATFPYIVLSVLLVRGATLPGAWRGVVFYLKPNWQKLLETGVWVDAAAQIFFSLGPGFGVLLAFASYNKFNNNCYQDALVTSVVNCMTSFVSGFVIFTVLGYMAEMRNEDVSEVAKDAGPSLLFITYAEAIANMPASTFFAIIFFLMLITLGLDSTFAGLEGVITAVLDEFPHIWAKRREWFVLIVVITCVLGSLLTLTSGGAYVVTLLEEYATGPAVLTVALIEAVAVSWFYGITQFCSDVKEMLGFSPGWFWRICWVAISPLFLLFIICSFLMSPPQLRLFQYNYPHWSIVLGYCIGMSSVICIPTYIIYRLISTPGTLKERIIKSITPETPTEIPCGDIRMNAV

- MOLECULE: "CC(N)Cc1ccc2c(c1)OCO2 (configuration not stated)"
  Ki, nM: 160
- MOLECULE: "CC(N)Cc1cccc(C(F)(F)F)c1 (configuration not stated)"
  Ki, nM: 104
- MOLECULE: "CN[C@@H](C)Cc1ccc2c(c1)OCO2 [MDMA, R(-)]"
  Ki, nM: 340
- MOLECULE: "C[C@H](N)Cc1ccc2c(c1)OCO2"
  Ki, nM: 100
- MOLECULE: "CN[C@@H](C)Cc1ccc2c(c1)OCO2 [DL-(3,4-Methylenedioxy)methamphetamine]"
  Ki, nM: 72
- MOLECULE: "C[C@@H](N)Cc1ccc2c(c1)OCO2"
  Ki, nM: 310
- MOLECULE: "CN[C@H](C)Cc1ccc2c(c1)OCO2"
  Ki, nM: 74

====

Biological target: Alpha-2C adrenergic receptor (Homo sapiens)
Sequence (P18825 whole entry): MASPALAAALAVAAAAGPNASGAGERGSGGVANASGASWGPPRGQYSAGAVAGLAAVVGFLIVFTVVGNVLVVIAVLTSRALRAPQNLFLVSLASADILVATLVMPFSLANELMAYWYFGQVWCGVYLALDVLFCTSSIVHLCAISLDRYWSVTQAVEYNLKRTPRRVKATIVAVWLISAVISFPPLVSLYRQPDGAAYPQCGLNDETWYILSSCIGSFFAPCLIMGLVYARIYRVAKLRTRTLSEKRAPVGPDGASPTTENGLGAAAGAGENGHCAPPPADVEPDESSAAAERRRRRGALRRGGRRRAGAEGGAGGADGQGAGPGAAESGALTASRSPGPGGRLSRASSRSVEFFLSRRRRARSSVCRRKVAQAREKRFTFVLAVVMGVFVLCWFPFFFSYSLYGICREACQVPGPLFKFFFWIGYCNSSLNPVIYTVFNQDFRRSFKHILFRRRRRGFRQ
pKi: −log10 of the molar value.

- SAMPLE_SMILES: "CN[C@@H](C)Cc1ccc2c(c1)OCO2"
  TGT: "Alpha-2C adrenergic receptor (Homo sapiens)"
  pKi: 5.95

====

Target: D(1B) dopamine receptor (Homo sapiens, UniProt P21918)
ASSAY_METRIC: Ki

- SAMPLE_SMILES: "CN[C@@H](C)Cc1ccc2c(c1)OCO2"
  TEST_RESULT: "> 10 µM"

====

Molecular target: Beta-2 adrenergic receptor (Rattus norvegicus, UniProt P10608)
ASSAY_METRIC: Ki

- SAMPLE_SMILES: "CN[C@@H](C)Cc1ccc2c(c1)OCO2"
  TGT: "Beta-2 adrenergic receptor (Rattus norvegicus, UniProt P10608)"
  TEST_RESULT: "> 10 µM"

====

Target: Neuronal acetylcholine receptor subunit alpha-3 (Homo sapiens, UniProt P32297)
pKi: −log10 of the molar value.
ASSAY_METRIC: pKi

- MOLECULE: "CN[C@@H](C)Cc1ccc2c(c1)OCO2 [DL-(3,4-Methylenedioxy)methamphetamine]"
  TEST_RESULT: "< 5.00"

====

Target: Sodium-dependent dopamine transporter (Rattus norvegicus)
Sequence (P23977 whole entry): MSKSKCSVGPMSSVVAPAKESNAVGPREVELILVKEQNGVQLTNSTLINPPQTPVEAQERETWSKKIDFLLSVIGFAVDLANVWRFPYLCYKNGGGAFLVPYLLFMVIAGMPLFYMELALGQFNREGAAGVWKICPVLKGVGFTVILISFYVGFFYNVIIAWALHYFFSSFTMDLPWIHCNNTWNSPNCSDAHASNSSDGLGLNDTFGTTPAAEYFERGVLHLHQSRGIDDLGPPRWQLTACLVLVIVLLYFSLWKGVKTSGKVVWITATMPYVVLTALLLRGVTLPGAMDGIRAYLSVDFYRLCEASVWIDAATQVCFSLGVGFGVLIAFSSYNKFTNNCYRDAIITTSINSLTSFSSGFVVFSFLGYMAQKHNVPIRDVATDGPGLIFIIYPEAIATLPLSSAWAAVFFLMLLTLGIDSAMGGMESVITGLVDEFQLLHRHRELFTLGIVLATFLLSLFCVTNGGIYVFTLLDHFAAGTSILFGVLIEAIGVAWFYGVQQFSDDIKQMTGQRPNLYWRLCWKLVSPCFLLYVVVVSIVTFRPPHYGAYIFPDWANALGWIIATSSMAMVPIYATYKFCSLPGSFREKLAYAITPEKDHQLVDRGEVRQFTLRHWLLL
pKi: −log10 of the molar value.
As shown below, each of these compounds has a reported pKi value.

- COMPOUND: "CN[C@@H](C)Cc1ccc2c(c1)OCO2 [MDMA, R(-)]"
  BOUND_SIGN: "="
  pKi: 5.43
- COMPOUND: "CCNC(C)Cc1cccc(C(F)(F)F)c1 (centres undefined)"
  BOUND_SIGN: "<"
  pKi: 5.00
- COMPOUND: "CN[C@H](C)Cc1ccc2c(c1)OCO2"
  BOUND_SIGN: "="
  pKi: 6.85
- COMPOUND: "NCCc1c[nH]c2ccc(O)cc12 [[3H]-5-HT]"
  BOUND_SIGN: "<"
  pKi: 5.00
- COMPOUND: "C[C@@H](N)Cc1ccc2c(c1)OCO2"
  BOUND_SIGN: "="
  pKi: 6.05
- COMPOUND: "CC(N)Cc1cccc(C(F)(F)F)c1 (centres undefined)"
  BOUND_SIGN: "="
  pKi: 5.72
- COMPOUND: "CC(N)Cc1ccc2c(c1)OCO2 (centres undefined)"
  BOUND_SIGN: "="
  pKi: 6.72
- COMPOUND: "C[C@H](N)Cc1ccc2c(c1)OCO2"
  BOUND_SIGN: "="
  pKi: 7.01
- COMPOUND: "CN[C@@H](C)Cc1ccc2c(c1)OCO2 [DL-(3,4-Methylenedioxy)methamphetamine]"
  BOUND_SIGN: "="
  pKi: 6.56

====

Target: Sodium-dependent dopamine transporter (Homo sapiens)

- MOLECULE: "CN[C@@H](C)Cc1ccc2c(c1)OCO2 [DL-(3,4-Methylenedioxy)methamphetamine]"
  Ki: "> 10 µM"

====

Biological target: Gamma-aminobutyric acid receptor subunit alpha-1 (Rattus norvegicus, UniProt P62813)
ASSAY_METRIC: Ki

- SAMPLE_SMILES: "CN[C@@H](C)Cc1ccc2c(c1)OCO2"
  TEST_RESULT: "> 10 µM"

====

Target: Norepinephrine transporter (Rattus norvegicus, UniProt Q9JIA2)
Criterion: Ki strictly less than 200 nM. Met: satisfied. Not met: not satisfied.

- COMPOUND: "CN[C@H](C)Cc1ccc2c(c1)OCO2"
  ANSWER_LABEL: "satisfied"
- COMPOUND: "CN[C@@H](C)Cc1ccc2c(c1)OCO2 [MDMA, R(-)]"
  ANSWER_LABEL: "not satisfied"
- COMPOUND: "CC(N)Cc1cccc(C(F)(F)F)c1 (stereo not drawn)"
  ANSWER_LABEL: "satisfied"
- COMPOUND: "CN[C@@H](C)Cc1ccc2c(c1)OCO2 [DL-(3,4-Methylenedioxy)methamphetamine]"
  ANSWER_LABEL: "satisfied"
- COMPOUND: "C[C@@H](N)Cc1ccc2c(c1)OCO2"
  ANSWER_LABEL: "not satisfied"
- COMPOUND: "C[C@H](N)Cc1ccc2c(c1)OCO2"
  ANSWER_LABEL: "satisfied"
- COMPOUND: "CC(N)Cc1ccc2c(c1)OCO2 (stereo not drawn)"
  ANSWER_LABEL: "satisfied"
- COMPOUND: "NCCc1c[nH]c2ccc(O)cc12 [[3H]-5-HT]"
  ANSWER_LABEL: "not satisfied"

The measurements presented in this section are drawn from BindingDB's records for doi:10.1124/mol.63.6.1223.
